Every entry's value here was drawn from ChEMBL document CHEMBL5032502.

# experimental_details: Oral bioavailability in Sprague-Dawley rat at 45 mg/kg measured upto 24 hrs by LC-MS analysis
# Format: ADME, organism-based
# condition_notes: in vivo
recorded_metric: bioavailability (%)
Number in %, nothing else.

*Q* // returns reported bioavailability for input CCOC(=O)[C@@H](CO)NCc1cc(Cl)c(OCc2cccc(-c3ccccc3)c2Br)cc1OCc1ccc2nonc2c1.Cl
*A* 9.12

====

# experimental_details: AUC (0 to t) in C57BL/6 mouse at 10 mg/kg, po measured upto 24 hrs by LC-MS analysis
# Type: ADME, organism-based
# Set-up: route oral, dose 10 mg/kg, time <=24
# condition_notes: in vivo
recorded_metric: AUC(0-t) at 24 h

*Q* // returns reported AUC(0-t) at 24 h for input CCOC(=O)[C@@H](CO)NCc1cc(Cl)c(OCc2cccc(-c3ccccc3)c2Br)cc1OCc1ccc2nonc2c1.Cl
*A* 444 ng·h/mL

====

# experimental_details: Cmax in Sprague-Dawley rat at 10 mg/kg, po measured upto 24 hrs by LC-MS analysis
# Assay type: ADME, organism-based
# Design: route oral, dose 10 mg/kg, time <=24
# condition_notes: in vivo
recorded_metric: Cmax

*Q* // returns reported Cmax for input O=C(O)[C@@H](CO)NCc1cc(Cl)c(OCc2cccc(-c3ccccc3)c2Br)cc1OCc1ccc2nonc2c1
*A* 4.46 ng/mL

====

# subject_of_test: Programmed cell death protein 1/Programmed cell death 1 ligand 1 (Homo sapiens)
# experimental_details: Inhibition of human PD-1/PD-L1 interaction assessed as blockade activity incubated for 15 mins by HTRF assay
recorded_metric: IC50 (µM)
Number in µM, nothing else.

Take a look at these entries with their results.
smi	recorded_metric	uom	result_value
O=C(O)[C@@H]1CCCCN1Cc1cc(Cl)c(OCc2cccc(-c3ccccc3)c2Br)cc1OCc1ccc2nonc2c1	IC50	µM	0.0133
O=C(O)[C@@H](CO)NCc1cc(Cl)c(OCc2cccc(-c3ccccc3)c2Cl)cc1OCc1ccc2nonc2c1	IC50	µM	0.0033
Cc1c(COc2ccc(CN[C@H](CO)C(=O)O)c(OCc3cccc(C#N)c3)c2)cccc1-c1ccccc1	IC50	µM	0.0358

*Q* // returns reported IC50 for input O=C(O)[C@@H](CO)NCc1cc(Cl)c(OCc2cccc(-c3cccc(O)c3)c2Cl)cc1OCc1ccc2nonc2c1
*A* 0.0587

*Q* // returns reported IC50 for input Clc1cc(CNCCN2CCCCC2)c(OCc2ccc3nonc3c2)cc1OCc1cccc(-c2ccccc2)c1Cl
*A* 0.291

*Q* // returns reported IC50 for input CC(=O)NCCNCc1cc(Cl)c(OCc2cccc(-c3ccccc3)c2Br)cc1OCc1ccc2nonc2c1
*A* 0.13

*Q* // returns reported IC50 for input O=C(O)[C@@H](CO)NCc1cc(Br)c(OCc2cccc(-c3ccccc3)c2Br)cc1OCc1ccc2nonc2c1
*A* 0.0275

*Q* // returns reported IC50 for input CC(C)C[C@H](NCc1cc(Cl)c(OCc2cccc(-c3ccccc3)c2Cl)cc1OCc1ccc2nonc2c1)C(=O)N[C@H](CC(C)C)C(=O)O
*A* 1.58

*Q* // returns reported IC50 for input O=C(O)[C@@H](CO)NCc1cc(Cl)c(OCc2cccc(-c3cccc(F)c3)c2Br)cc1OCc1ccc2nonc2c1
*A* 0.0082

*Q* // returns reported IC50 for input CN1CCN(Cc2cc(Cl)c(OCc3cccc(-c4ccccc4)c3Br)cc2OCc2ccc3nonc3c2)CC1
*A* 3.59

*Q* // returns reported IC50 for input O=C1CC[C@@H](CNCc2cc(Cl)c(OCc3cccc(-c4ccccc4)c3Cl)cc2OCc2ccc3nonc3c2)N1
*A* 0.0216

*Q* // returns reported IC50 for input O=C(O)[C@@H](CO)NCc1cc(Cl)c(OCc2cccc(-c3cccc(Cl)c3)c2Br)cc1OCc1ccc2nonc2c1
*A* 0.0243

====

# experimental_details: Cmax in C57BL/6 mouse at 10 mg/kg, po measured upto 24 hrs by LC-MS analysis
# Assay type: ADME, organism-based
# Parameters: route oral, dose 10 mg/kg, time <=24
# condition_notes: in vivo
recorded_metric: Cmax (ng/mL)
Number in ng/mL, nothing else.

*Q* // returns reported Cmax for input CCOC(=O)[C@@H](CO)NCc1cc(Cl)c(OCc2cccc(-c3ccccc3)c2Br)cc1OCc1ccc2nonc2c1.Cl
*A* 150

====

# subject_of_test: Programmed cell death protein 1/Programmed cell death 1 ligand 1 (Homo sapiens, UniProt Q9NZQ7)
# Sequence (Q15116 whole entry): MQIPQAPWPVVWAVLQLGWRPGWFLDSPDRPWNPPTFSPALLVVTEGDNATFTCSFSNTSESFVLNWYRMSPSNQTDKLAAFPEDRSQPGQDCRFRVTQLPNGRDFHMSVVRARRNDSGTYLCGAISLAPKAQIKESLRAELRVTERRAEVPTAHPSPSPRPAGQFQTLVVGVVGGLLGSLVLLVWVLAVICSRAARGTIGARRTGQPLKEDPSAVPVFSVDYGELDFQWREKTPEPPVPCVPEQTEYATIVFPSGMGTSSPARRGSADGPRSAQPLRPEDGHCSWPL
# Sequence (Q9NZQ7 whole entry): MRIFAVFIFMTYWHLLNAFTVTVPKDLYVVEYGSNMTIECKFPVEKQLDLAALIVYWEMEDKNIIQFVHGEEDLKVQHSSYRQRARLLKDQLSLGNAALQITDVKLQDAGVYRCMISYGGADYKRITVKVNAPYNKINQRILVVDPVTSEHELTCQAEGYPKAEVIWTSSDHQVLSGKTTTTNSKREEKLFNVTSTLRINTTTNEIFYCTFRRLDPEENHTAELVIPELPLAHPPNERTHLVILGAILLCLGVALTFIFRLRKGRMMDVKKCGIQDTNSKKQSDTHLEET
# experimental_details: Inhibition of human PD-1/PD-L1 interaction assessed as blockade activity incubated for 15 mins by HTRF assay
recorded_metric: IC50 (nM)
Number in nM, nothing else.

compound	IC50 (nM)
O=C(O)[C@@H](CO)NCc1cc(F)c(OCc2cccc(-c3ccccc3)c2Br)cc1OCc1ccc2nonc2c1	7.8
O=C(O)[C@@H](CO)NCc1cc(Cl)c(OCc2cccc(-c3ccccc3)c2F)cc1OCc1ccc2nonc2c1	3.5
OC1CCC(NCc2cc(Cl)c(OCc3cccc(-c4ccccc4)c3Br)cc2OCc2ccc3nonc3c2)CC1 (stereo not drawn)	57.2
O=C(O)[C@@H](CO)NCc1cc(Cl)c(OCc2cccc(-c3cccc(OCCO)c3)c2Cl)cc1OCc1ccc2nonc2c1	101
COc1cccc(-c2cccc(COc3cc(OCc4ccc5nonc5c4)c(CN[C@H](CO)C(=O)O)cc3Cl)c2Br)c1	7.8

*Q* // returns reported IC50 for input O=C(O)[C@@H](CO)NCc1cc(Cl)c(OCc2cccc(-c3cccc(OCCCO)c3)c2Cl)cc1OCc1ccc2nonc2c1
*A* 60.9

*Q* // returns reported IC50 for input Cc1c(COc2cc(OCc3ccc4nonc4c3)c(CN[C@H](CO)C(=O)O)cc2Cl)cccc1-c1ccccc1
*A* 16.6

*Q* // returns reported IC50 for input O=C(O)[C@@H](CO)NCc1cc(Cl)c(OCc2cccc(-c3cccc(OCCCO)c3)c2Br)cc1OCc1ccc2nonc2c1
*A* 30.9

====

# experimental_details: Clearance in Sprague-Dawley rat at 2 mg/kg, iv measured upto 24 hrs by LC-MS analysis
# Type: ADME, organism-based
# condition_notes: in vivo
recorded_metric: clearance

*Q* // returns reported clearance for input O=C(O)[C@@H](CO)NCc1cc(Cl)c(OCc2cccc(-c3ccccc3)c2Br)cc1OCc1ccc2nonc2c1
*A* 2.38 L/h/kg

====

# experimental_details: Tmax in C57BL/6 mouse at 10 mg/kg, po measured upto 24 hrs by LC-MS analysis
# Assay type: ADME, organism-based
# condition_notes: in vivo
recorded_metric: Tmax (h)
Number in h, nothing else.

*Q* // returns reported Tmax for input CCOC(=O)[C@@H](CO)NCc1cc(Cl)c(OCc2cccc(-c3ccccc3)c2Br)cc1OCc1ccc2nonc2c1.Cl
*A* 1
